# test target: UniProtKB Q06187
# Sequence (Q06187 whole entry): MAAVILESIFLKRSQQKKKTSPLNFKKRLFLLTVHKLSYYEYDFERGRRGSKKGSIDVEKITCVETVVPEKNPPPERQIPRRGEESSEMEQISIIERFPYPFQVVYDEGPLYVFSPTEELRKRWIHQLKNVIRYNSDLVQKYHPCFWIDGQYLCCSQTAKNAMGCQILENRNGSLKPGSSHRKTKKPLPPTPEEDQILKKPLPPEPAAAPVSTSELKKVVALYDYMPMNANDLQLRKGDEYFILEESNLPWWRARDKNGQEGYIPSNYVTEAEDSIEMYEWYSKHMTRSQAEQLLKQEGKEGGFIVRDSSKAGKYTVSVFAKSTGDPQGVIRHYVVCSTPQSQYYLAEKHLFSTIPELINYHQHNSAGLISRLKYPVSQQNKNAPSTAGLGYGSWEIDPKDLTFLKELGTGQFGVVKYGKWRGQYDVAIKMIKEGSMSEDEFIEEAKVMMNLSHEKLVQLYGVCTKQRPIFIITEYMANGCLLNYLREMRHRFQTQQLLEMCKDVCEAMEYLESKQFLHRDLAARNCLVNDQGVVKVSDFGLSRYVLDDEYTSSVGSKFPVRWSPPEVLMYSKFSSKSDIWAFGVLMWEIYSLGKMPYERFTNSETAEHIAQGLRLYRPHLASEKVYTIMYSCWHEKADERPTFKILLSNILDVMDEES
measured property: pIC50
pIC50 here: minus log base 10 of the concentration, concentration in moles per litre.

What the record says about C=CC(=O)Nc1cccc(Oc2nc(Nc3ccc(N4CCN(C)CC4)c(N)c3)nc3[nH]ccc23)c1 [Compound 6] : pIC50 is 7.96

---

# Test system: HCC827 cells
# measurement notes: Inhibition of cell proliferation, CCK8 method
# Type: cell-based, human
# protocol conditions: Homo sapiens; HCC827 EGFR mutant cells, 48 h, CCK8; read-out: Inhibitory activity (IC50) against HCC827
# Description: The stock solution was diluted with the corresponding culture medium to the required concentration just before the experiment. […] The cells were counted, and then seeded in a 96-well plate at a density of 5000 cells/well, 100 μl for each well. […] 450 nm wavelength was chosen, and the absorbance value of each well was adjusted on the microplate ELISA analyzer. The result was recorded. […] was taken as the horizontal axis, and absorbance as the vertical axis to plot a curve. […]
Label t when IC50 < 300 nM; otherwise f.

Incoming: A record lists C=CC(=O)Nc1cccc(Oc2nc(Nc3ccc(N4CCN(C)CC4)c(N)c3)nc3c2ccn3COC(=O)C(C)(C)C)c1 . Is its IC50 below 300 nM?
Outgoing: f

Incoming: A record lists C=CC(=O)Nc1cccc(Oc2nc(Nc3ccc(N4CCN(C)CC4)c(F)c3)nc3[nH]ccc23)c1 [Avitinib, reference compound] . Is its IC50 below 300 nM?
Outgoing: t

Incoming: A record lists C=CC(=O)Nc1cccc(Oc2nc(Nc3ccc(N4CCN(C)CC4)c(N)c3)nc3[nH]ccc23)c1 . Is its IC50 below 300 nM?
Outgoing: t

Incoming: A record lists C=CC(=O)Nc1cccc(Oc2nc(Nc3ccc(N4CCN(C)CC4)c([N+](=O)[O-])c3)nc3[nH]ccc23)c1 . Is its IC50 below 300 nM?
Outgoing: t

Incoming: A record lists C=CC(=O)Nc1cccc(Oc2nc(Nc3ccc(N4CCN(C)CC4)c(OC)c3)nc3[nH]ccc23)c1 . Is its IC50 below 300 nM?
Outgoing: t

Incoming: A record lists C=CC(=O)Nc1cccc(Oc2nc(Nc3ccc(N4CCN(C)CC4)c([N+](=O)[O-])c3)nc3c2ccn3COC(=O)C(C)(C)C)c1 . Is its IC50 below 300 nM?
Outgoing: f

The values you see were collected from patent US20230075765A1.
